assay-info: Inhibition of ERK phosphorylation in LPS-stimulated mouse PEC by HTRF assay
pIC50: −log10 of the molar value.
measured-parameter: pIC50

c1ccc(-c2ccc(Oc3cncc4sc(-c5nn[nH]n5)cc34)cc2)cc1; 4.92
Fc1ccc(-c2ccc(Oc3cncc4sc(-c5nn[nH]n5)cc34)cc2)cc1; 4.95
Nc1ccc(-c2ccc(Oc3cncc4sc(-c5nn[nH]n5)cc34)cc2)cc1; 5.96

A: FC(F)(F)c1ccc(-c2ccc(Oc3cncc4sc(-c5nn[nH]n5)cc34)cc2)cc1
B: N#Cc1ccc(-c2ccc(Oc3cncc4sc(-c5nn[nH]n5)cc34)cc2)cc1
Input line: Between the entries labeled A and B , whose measured pIC50 is lower? // caller expects the label of the chosen entry
Output line: B
